Source of measurements: PubChem BioAssay (NCI)

For each record, write down the corresponding GI50.
system: MCF7 breast; experiment: NCI tumour cell line growth inhibition, 48 h

Here is how some molecules turned out for GI50.
> print(dat)
                                   molecule  experimental.readout  measurement
1  COc1ccc(C=C2C(=O)NC(=O)NC2=O)cc1OCc1ccccc1                  GI50   59.6 µg/mL
2  COc1ccc2c(c1OC)C(=O)O[C@@H]2[C@H]1c2c(c(Br)c3c(c2OC)OCO3)CCN1C                  GI50      4.18 µM
3  CC(=O)n1c(-c2ccc(Cl)c(Cl)c2)cn(-c2ccc(Cl)cc2)c1=O                  GI50      30.8 µM
4              COc1ccc(CN=C(N)N=C(N)N)cc1OC                  GI50       855 µM

Switching to the query record.
Task: Look up GI50: NCCSC(C[N+](=O)[O-])c1ccccc1Cl (stereo not given)
Result: 1.13 µM
